The entries below come with measured Kd values attached.
Target: T1, polypeptide N-acetylgalactosaminyltransferase 2 (GalNAc-T2), K75-Q571 (human, UniProt Q10471 75-571)
T1 construct: GalNAc-T2 (polypeptide N-acetylgalactosaminyltransferase 2), residues K75-Q571: catalytic domain, flexible linker and lectin domain; Theoretical MW 56.7 kDa (D1:p10); source: expression plasmid pPICZαAgalnact2 (K75-Q571)
T1 sequence (Q10471 75-571): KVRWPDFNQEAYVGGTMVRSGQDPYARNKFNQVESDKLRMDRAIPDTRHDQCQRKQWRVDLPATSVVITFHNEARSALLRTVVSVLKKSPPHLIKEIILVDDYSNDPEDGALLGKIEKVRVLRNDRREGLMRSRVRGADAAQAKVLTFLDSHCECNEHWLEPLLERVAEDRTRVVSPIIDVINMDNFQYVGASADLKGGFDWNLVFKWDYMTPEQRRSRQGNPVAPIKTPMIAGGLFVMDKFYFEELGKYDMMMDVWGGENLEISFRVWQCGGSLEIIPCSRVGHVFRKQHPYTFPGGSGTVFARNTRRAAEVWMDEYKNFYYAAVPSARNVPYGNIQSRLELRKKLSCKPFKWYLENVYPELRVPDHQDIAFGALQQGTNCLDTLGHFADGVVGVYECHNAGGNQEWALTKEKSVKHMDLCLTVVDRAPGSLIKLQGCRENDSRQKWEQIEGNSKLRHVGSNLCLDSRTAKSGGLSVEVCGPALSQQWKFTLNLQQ
Assay: other fluorescence titration; tryptophan fluorescence quenching of GalNAc-T2 (1 µM) by peptides at 1-500 µM; 25 mM Tris, 150 mM NaCl, pH 7.5, 25 °C; no UDP/Mn2+; single binding site model
Conditions: both partners purified
Where no end group is shown, it is not given here.

{"binder": "GTTPSPVPTTSTT(GalNAc)SA (Made on Rink amide resin, so the C-terminus is probably an amide (surmised); source: synthetic peptide (Fmoc solid-phase synthesis on Rink Amide MBHA resin, HPLC purified)) [MUC5AC-13 glycopeptide]", "Kd / µM": 8}
{"binder": "GTT(GalNAc)PSPVPTTSTT(GalNAc)SA (not fully specified (C-terminus), Made on Rink amide resin, so the C-terminus is probably an amide (surmised); source: synthetic peptide (Fmoc solid-phase synthesis on Rink Amide MBHA resin, HPLC purified)) [MUC5AC-3-13 diglycosylated peptide]", "Kd / µM": 11}
{"binder": "GTTPSPVPTTSTTSA (peptide named after mucin MUC5AC; Made on Rink amide resin, so the C-terminus is probably an amide (surmised); source: synthetic peptide (Fmoc solid-phase synthesis on Rink Amide MBHA resin, HPLC purified)) [MUC5AC peptide (naked)]", "Kd / µM": 7}
